The compounds below each have a reported Ki tested on 5-hydroxytryptamine receptor 1A (Rattus norvegicus, UniProt P19327); the values come from various publications.
Sequence (P19327 whole entry): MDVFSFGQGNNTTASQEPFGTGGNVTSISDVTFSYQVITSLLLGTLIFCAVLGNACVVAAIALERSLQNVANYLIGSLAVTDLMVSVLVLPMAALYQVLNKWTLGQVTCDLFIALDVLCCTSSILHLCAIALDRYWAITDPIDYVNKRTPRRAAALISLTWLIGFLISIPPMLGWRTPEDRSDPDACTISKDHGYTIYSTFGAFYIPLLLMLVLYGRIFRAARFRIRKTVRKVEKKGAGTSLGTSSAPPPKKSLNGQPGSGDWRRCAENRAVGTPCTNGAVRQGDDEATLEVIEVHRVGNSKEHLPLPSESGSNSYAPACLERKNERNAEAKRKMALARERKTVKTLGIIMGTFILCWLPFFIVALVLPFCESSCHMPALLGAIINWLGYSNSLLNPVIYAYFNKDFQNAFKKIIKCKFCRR
PARAMETER: Ki (nM)

{"COMPOUND": "CCCCc1ccc(C(=O)N(CCN2CCN(c3ccccc3OC)CC2)c2ccccn2)cc1", "Ki, nM": 13.2}
{"COMPOUND": "O=C1CC2(CCCC2)CC(=O)N1CCN1CCN(c2ncccn2)CC1", "Ki, nM": 151}
{"COMPOUND": "CCCN(CCC)C1CCc2ccc3[nH]cc(S(C)(=O)=O)c3c2C1 (stereo not given)", "Ki, nM": 11}
{"COMPOUND": "Cn1c(=O)c2c([nH]c(=O)n2CCCN2CCN(c3cccc(Cl)c3)CC2)n(C)c1=O", "Ki, nM": 1110}
{"COMPOUND": "O=c1c(-c2ccccc2F)c2ccccn2c(=O)n1CCCCN1CC=C(c2c[nH]c3ccc(Br)cc23)CC1", "Ki, nM": 32.5}
{"COMPOUND": "O=c1oc2cc(OCCCCN3CCC(c4nc5ccccc5o4)CC3)ccc2c2c1CCC2", "Ki, nM": 26.8}

A. O=C(c1cccc(F)c1)N1CCC(CNCc2cccc(-n3cccn3)n2)CC1
B. Cl.NC[C@@H]1O[C@H](c2ccccc2)Cc2c1ccc(Br)c2O
Which has the smaller recorded Ki, A or B ? Select an item and report its label.
A

A. Cc1ccccc1N1CCN(CCCN2C(=O)C3CCCCN3C2=O)CC1 (stereo not given)
B. COc1cccc2c1[C@@H]1CCN(CCCN3C(=O)CC4(CCCC4)CC3=O)C[C@H]1C2
Determine, for A and B , which has the greater value of Ki. Select an item and report its label.
A
(A: 220 nM, B: 51.2 nM)
